tested on: MRC-5 fibroblasts; experiment: Basal cytotoxicity, neutral red uptake assay, MRC-5; assay type: cell-based; conditions: Homo sapiens, MRC5, MRC-5, confluent cultures, 24 h, read-out: IC50 ± SEM, Fibroblasts
Assign IC50 to each entry below.
One number for each entry, in µM.

INPUT: May I ask what IC50 has been recorded for CC(C)=CCC1=C(OC(=O)C[C@H](C)CCC2[C@@H](C)CCC3[C@]2(C)CCC[C@]3(C)C(=O)O)C(=O)c2ccccc2C1=O (stereo partly drawn) [Compound 11, Lapachoyl 17β-dihydrojunicedrate] ?
OUTPUT: 336

INPUT: What value of measured IC50 is listed for C=C1CCC2[C@](C)(CCC[C@]2(C)C(=O)O)[C@H]1CC[C@@H](C)CC(=O)OC1=C(CC=C(C)C)C(=O)c2ccccc2C1=O (some centres unmarked) [Compound 1, Lapachoyl junicedrate] ?
OUTPUT: 210

INPUT: Report IC50 for C=C1CCC2[C@](C)(CCC[C@]2(C)C(=O)O)[C@H]1CC[C@@H](C)CC(=O)O (some centres unmarked) [Junicedric acid (I), junicedric acid, reference compound] please.
OUTPUT: 181

INPUT: Tell me the measured IC50 of COC(=O)[C@@]1(C)CCC[C@]2(C)C(CC[C@@H](C)CC(=O)OC3=C(CC=C(C)C)C(=O)c4ccccc4C3=O)[C@@H](C)CCC21 (some centres unmarked) , please.
OUTPUT: 926

INPUT: Suppose we examine the compound Cc1c(OCC(F)(F)F)ccnc1C[S+]([O-])c1nc2ccccc2[nH]1 (centres unmarked) [Lansoprazole, lansoprazole, reference compound] ; what IC50 value has been reported?
OUTPUT: 306

Further cases:
INPUT: Entry under review: CC(C)=CCC1=C(OC(=O)C[C@H](C)CCC2=C(C)CCC3[C@@](C)(C(=O)O)CCC[C@]23C)C(=O)c2ccccc2C1=O (some centres unmarked) [Compound 7, Lapachoyl Δ8(9) junicedrate] . Reported IC50?
OUTPUT: 190
